Reported values of TI for individual entries
PROTOCOL_NOTES: Therapeutic index represented as LD50/ED50 was determined
ATTRIBUTE_MEASURED: TI (Ratio)

COMPOUND: O=P1(NCCCl)OCCCN1CCBr (centres undefined)
ATTRIBUTE_MEASURED: TI
VALUE_UNITS: Ratio
RECORDED_RESULT: 9.3
--
COMPOUND: [2H]C([2H])(CCl)N[P@]1(=O)OCCCN1C([2H])([2H])CBr
ATTRIBUTE_MEASURED: TI
VALUE_UNITS: Ratio
RECORDED_RESULT: 17.7
--
COMPOUND: O=P1(NCCCl)OCCCN1CCCl (centres undefined) [IFOSFAMIDE]
ATTRIBUTE_MEASURED: TI
VALUE_UNITS: Ratio
RECORDED_RESULT: 7.1
--
COMPOUND: O=[P@]1(NCCCl)OCCCN1CCBr
ATTRIBUTE_MEASURED: TI
VALUE_UNITS: Ratio
RECORDED_RESULT: 13.6

###

Species on record: Mus musculus
PROTOCOL_NOTES: Effective dose that produce antitumor activity against L1210 leukemia in mice
Format: functional
Please note: ED50 exactly at 30 mg/kg is FALSE. Only values below 30 mg/kg get TRUE.

COMPOUND: O=P1(NCCCl)OCCCN1CCBr (stereo unspecified)
CAT: FALSE

COMPOUND: O=P1(NCCCl)OCCCN1CCCl (stereo unspecified) [IFOSFAMIDE]
CAT: FALSE

COMPOUND: [2H]C([2H])(CCl)NP1(=O)OCCCN1C([2H])([2H])CCl (stereo unspecified)
CAT: FALSE

COMPOUND: [2H]C([2H])(CCl)NP1(=O)OCCCN1C([2H])([2H])CBr (stereo unspecified)
CAT: TRUE

COMPOUND: O=[P@]1(NCCCl)OCCCN1CCBr
CAT: TRUE

COMPOUND: [2H]C([2H])(CCl)N[P@]1(=O)OCCCN1C([2H])([2H])CBr
CAT: TRUE

###

PROTOCOL_NOTES: Dose required to kill 50% of healthy, non-tumour-bearing mice (LD50)
TEST_SETTINGS: mouse, in vivo
ATTRIBUTE_MEASURED: LD50 (mg/kg)

MOLECULE: [2H]C([2H])(CCl)N[P@]1(=O)OCCCN1C([2H])([2H])CBr
RECORDED_RESULT: 265
//
MOLECULE: O=P1(NCCCl)OCCCN1CCBr (centres undefined)
RECORDED_RESULT: 320
//
MOLECULE: O=[P@]1(NCCCl)OCCCN1CCBr
RECORDED_RESULT: 289
//
MOLECULE: O=P1(NCCCl)OCCCN1CCCl (centres undefined) [IFOSFAMIDE]
RECORDED_RESULT: 687

###

Species on record: Mus musculus
PROTOCOL_NOTES: Maximum tolerated dose against L1210 leukemia in mice
Assay type: functional

MOLECULE: O=P1(NCCCl)OCCCN1CCCl (centres undefined) [IFOSFAMIDE]
MTD [mg/kg]: 518
//
MOLECULE: [2H]C([2H])(CCl)N[P@]1(=O)OCCCN1C([2H])([2H])CBr
MTD [mg/kg]: 196
//
MOLECULE: O=P1(NCCCl)OCCCN1CCBr (centres undefined)
MTD [mg/kg]: 236
//
MOLECULE: O=[P@]1(NCCCl)OCCCN1CCBr
MTD [mg/kg]: 230

Where do these numbers come from? They come from ChEMBL document CHEMBL1135044.
